molecular target: Factor X (FX), P00742
Sequence (P00742 whole entry, looked up): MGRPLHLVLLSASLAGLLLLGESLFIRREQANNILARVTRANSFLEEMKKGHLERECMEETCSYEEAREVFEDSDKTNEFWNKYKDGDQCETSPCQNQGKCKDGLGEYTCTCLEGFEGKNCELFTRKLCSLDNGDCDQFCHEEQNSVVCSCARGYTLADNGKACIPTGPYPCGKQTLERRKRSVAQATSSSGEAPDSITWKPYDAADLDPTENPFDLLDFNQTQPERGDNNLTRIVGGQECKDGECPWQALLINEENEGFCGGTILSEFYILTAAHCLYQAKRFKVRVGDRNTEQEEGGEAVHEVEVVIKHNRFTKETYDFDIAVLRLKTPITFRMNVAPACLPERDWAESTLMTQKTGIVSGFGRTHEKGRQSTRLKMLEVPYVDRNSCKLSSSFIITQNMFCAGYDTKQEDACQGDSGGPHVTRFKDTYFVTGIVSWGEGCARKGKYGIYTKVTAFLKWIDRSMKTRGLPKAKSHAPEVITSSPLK
% of WT kcat/KM values, listed per item
Be sure to follow the number with its unit.

Please review the following examples before continuing.
Prompt: Returns the measured % of WT kcat/KM for the input protein. Input: FIXa variant K293A/R338A/R403A (protein) chain 1: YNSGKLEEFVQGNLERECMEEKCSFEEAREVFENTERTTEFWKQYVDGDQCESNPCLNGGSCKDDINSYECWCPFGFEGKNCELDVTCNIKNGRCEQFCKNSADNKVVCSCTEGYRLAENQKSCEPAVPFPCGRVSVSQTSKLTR chain 2: VVGGEDAKPGQFPWQVVLNGKVDAFCGGSIVNEKWIVTAAHCVETGVKITVVAGEHNIEETEHTEQKRNVIRIIPHHNYNAAINKYNHDIALLELDEPLVLNSYVTPICIADAEYTNIFLKFGSGYVSGWGRVFHKGRSALVLQYLRVPLVDRATCLASTKFTIYNNMFCAGFHEGGRDSCQGDSGGPHVTEVEGTSFLTGIISWGEECAMKGKYGIYTKVSAYVNWIKEKTKLT
Response: 53%

Prompt: Please give the result for FIXa-D104N/K106S/K247N/N249S/R318Y/R338E/R403E/E410N (protein) chain 1: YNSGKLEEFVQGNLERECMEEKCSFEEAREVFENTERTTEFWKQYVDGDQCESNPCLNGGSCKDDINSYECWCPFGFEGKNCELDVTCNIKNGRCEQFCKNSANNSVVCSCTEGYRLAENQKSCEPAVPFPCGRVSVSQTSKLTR chain 2: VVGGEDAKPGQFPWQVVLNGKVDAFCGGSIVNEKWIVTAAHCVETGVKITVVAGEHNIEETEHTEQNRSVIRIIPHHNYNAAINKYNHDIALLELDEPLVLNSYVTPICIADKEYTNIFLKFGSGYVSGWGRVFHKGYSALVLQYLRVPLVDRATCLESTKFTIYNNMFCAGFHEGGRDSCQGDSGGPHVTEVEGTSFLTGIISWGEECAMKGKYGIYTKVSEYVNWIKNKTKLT too.
Response: 192%

Prompt: Please give the result for FIXa variant D203N/F205T/R318Y/E410N (protein) chain 1: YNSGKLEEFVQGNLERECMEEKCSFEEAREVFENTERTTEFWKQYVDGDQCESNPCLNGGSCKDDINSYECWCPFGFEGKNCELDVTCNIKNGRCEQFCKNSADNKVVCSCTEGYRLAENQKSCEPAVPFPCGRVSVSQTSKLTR chain 2: VVGGEDAKPGQFPWQVVLNGKVNATCGGSIVNEKWIVTAAHCVETGVKITVVAGEHNIEETEHTEQKRNVIRIIPHHNYNAAINKYNHDIALLELDEPLVLNSYVTPICIADKEYTNIFLKFGSGYVSGWGRVFHKGYSALVLQYLRVPLVDRATCLRSTKFTIYNNMFCAGFHEGGRDSCQGDSGGPHVTEVEGTSFLTGIISWGEECAMKGKYGIYTKVSRYVNWIKNKTKLT too.
Response: 85%

Now for a further protein.
Prompt: Returns the measured % of WT kcat/KM for the input protein. Input: FIXa-D104N/K106S/I251S/R318Y/R338E/R403E/E410N (protein) chain 1: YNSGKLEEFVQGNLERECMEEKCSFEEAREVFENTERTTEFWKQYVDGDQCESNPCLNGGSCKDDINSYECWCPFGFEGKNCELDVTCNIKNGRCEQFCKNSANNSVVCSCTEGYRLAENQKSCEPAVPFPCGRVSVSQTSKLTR chain 2: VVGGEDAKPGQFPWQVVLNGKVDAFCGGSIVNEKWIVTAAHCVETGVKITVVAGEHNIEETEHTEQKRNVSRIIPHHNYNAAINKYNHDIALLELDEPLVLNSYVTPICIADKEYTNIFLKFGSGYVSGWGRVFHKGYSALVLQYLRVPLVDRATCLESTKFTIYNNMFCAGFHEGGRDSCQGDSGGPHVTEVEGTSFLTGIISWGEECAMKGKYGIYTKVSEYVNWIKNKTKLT
Response: 263%

Origin of measurements: patent US20210238260
